Every entry's value here was drawn from patent US6335357B1.

- Tested on: Plutella xylostella
- Experiment notes: Low concentration test, Plutella xylostella (Test Example 6)
- Type: in vivo
- Cond: 0.2 ppm
Answer each item with its documented Death Rate (%) Plutella xylostella.

Worked cases, answers included:
### Prompt Param item = CCCNc1c(SC(F)(F)F)c(C#N)nn1-c1c(Cl)cc(C(F)(F)F)cc1Cl ; retrieve measured Death Rate (%) Plutella xylostella.
### Response 20%

### Prompt Another: Cn1cccc1CNc1c(SC(F)(F)F)c(C#N)nn1-c1c(Cl)cc(C(F)(F)F)cc1Cl
### Response 40%

### Prompt Another: N#Cc1nn(-c2c(Cl)cc(C(F)(F)F)cc2Cl)c(N=Cc2ccncc2)c1SC(F)(F)F
### Response 100%

We now examine a further compound.
### Prompt Param item = N#Cc1nn(-c2c(Cl)cc(C(F)(F)F)cc2Cl)c(NCc2ccncc2)c1SC(F)(F)F ; retrieve measured Death Rate (%) Plutella xylostella.
### Response 100%

###

- Test system: Plutella xylostella
- Experiment notes: Low concentration test, Plutella xylostella (Test Example 6)
- Assay type: in vivo
- Cond: 3.1 ppm
Outcome measure: Death Rate (%) Plutella xylostella
Numbers only, in %.

Worked cases, answers included:
### Prompt Param item = Cn1cccc1CNc1c(SC(F)(F)F)c(C#N)nn1-c1c(Cl)cc(C(F)(F)F)cc1Cl [Compound 57] ; retrieve measured Death Rate (%) Plutella xylostella.
### Response 100

### Prompt Another: N#Cc1nn(-c2c(Cl)cc(C(F)(F)F)cc2Cl)c(NCc2ccncc2)c1SC(F)(F)F [Compound 1]
### Response 100

### Prompt Another: CCCNc1c(SC(F)(F)F)c(C#N)nn1-c1c(Cl)cc(C(F)(F)F)cc1Cl [I]
### Response 100

Return reported Death Rate (%) Plutella xylostella values for all items listed beneath this line.
1. N#Cc1nn(-c2c(Cl)cc(C(F)(F)F)cc2Cl)c(N=Cc2ccncc2)c1SC(F)(F)F [II]
2. Cn1cccc1C=Nc1c(SC(F)(F)F)c(C#N)nn1-c1c(Cl)cc(C(F)(F)F)cc1Cl [III]

### Response
1: 100; 2: 75

###

- System: Callosobruchus chinensis
- Experiment notes: Insecticidal effect on imagoes of Callosobruchus chinensis (Test Example 4)
- Format: in vivo
- Cond: 500 ppm, sprayed emulsion, after 4 days at 25° C.
Outcome measure: Death Rate (%)
One number for each entry, in %.

Worked cases, answers included:
### Prompt Param item = COc1cc(CNc2c(SC(F)(F)F)c(C#N)nn2-c2c(Cl)cc(C(F)(F)F)cc2Cl)ccc1O [Compound 2] ; retrieve measured Death Rate (%).
### Response 100

### Prompt Another: N#Cc1nn(-c2c(Cl)cc(C(F)(F)F)cc2Cl)c(NCc2ccncc2)c1SC(F)(F)F [Compound 1]
### Response 100

### Prompt Another: COc1cc(CNc2c([S+]([O-])C(F)(F)F)c(C#N)nn2-c2c(Cl)cc(C(F)(F)F)cc2Cl)ccc1O (centres unmarked) [Compound 64]
### Response 100

### Prompt Another: COc1ccc(CNc2c(SC(F)(F)F)c(C#N)nn2-c2c(Cl)cc(C(F)(F)F)cc2Cl)cc1 [Compound 7]
### Response 100

Return reported Death Rate (%) values for all items listed beneath this line.
1. Cn1cccc1CNc1c(SC(F)(F)F)c(C#N)nn1-c1c(Cl)cc(C(F)(F)F)cc1Cl [Compound 57]
2. CC(C)Oc1ccc(CNc2c(SC(F)(F)F)c(C#N)nn2-c2c(Cl)cc(C(F)(F)F)cc2Cl)cc1 [Compound 8]
3. CC(C)(C)c1ccc(CNc2c(SC(F)(F)F)c(C#N)nn2-c2c(Cl)cc(C(F)(F)F)cc2Cl)cc1 [Compound 5]

### Response
1. 100
2. 100
3. 100

### Prompt Param item = N#Cc1nn(-c2c(Cl)cc(C(F)(F)F)cc2Cl)c(NCc2ccccc2Cl)c1SC(F)(F)F [Compound 18] ; retrieve measured Death Rate (%).
### Response 100

###

- System: Myzus persicae
- Experiment notes: Low concentration test, Myzus persicae (Test Example 6)
- Assay type: in vivo
- Cond: 200 ppm
Outcome measure: Death Rate (%) Myzus persicae
Numbers only, in %.

Worked cases, answers included:
### Prompt Param item = N#Cc1nn(-c2c(Cl)cc(C(F)(F)F)cc2Cl)c(N=Cc2ccncc2)c1SC(F)(F)F [II] ; retrieve measured Death Rate (%) Myzus persicae.
### Response 0

### Prompt Another: CCCNc1c(SC(F)(F)F)c(C#N)nn1-c1c(Cl)cc(C(F)(F)F)cc1Cl [I]
### Response 50

### Prompt Another: Cn1cccc1CNc1c(SC(F)(F)F)c(C#N)nn1-c1c(Cl)cc(C(F)(F)F)cc1Cl [Compound 57]
### Response 100

### Prompt Another: Cn1cccc1C=Nc1c(SC(F)(F)F)c(C#N)nn1-c1c(Cl)cc(C(F)(F)F)cc1Cl [III]
### Response 0

We now examine a further compound.
### Prompt Param item = N#Cc1nn(-c2c(Cl)cc(C(F)(F)F)cc2Cl)c(NCc2ccncc2)c1SC(F)(F)F [Compound 1] ; retrieve measured Death Rate (%) Myzus persicae.
### Response 100
